// data source = the supplement of paper PMC4371806

- Tested on: Escherichia coli BW25113
- test.summary: plate-normalized OD600 growth (mean of duplicates) (OD600 (normalized)); higher = more growth (less inhibition)
- condition.details: temperature: 37°C; 24 h; 10 µM
Over roughly 2,300 compounds, “plate-normalized OD600 growth (mean of duplicates)” has its median near 0.29; the lowest 2% begin near 0.22. The sample as a whole holds a higher share of the lowest values than the screen did.
quantity.name: plate-normalized OD600 growth
Numbers only.

Past entries and their recorded results:
>>> numeric_readout("Cc1cc(C)c2nc3s/c(=C\\c4ccccc4C(F)(F)F)c(=O)n3c2c1")
0.593
>>> numeric_readout("NC(N)=Nc1nc(-c2cc(Cl)sc2Cl)cs1")
0.607

Go through the items and report each one's plate-normalized OD600 growth.
1. O=C(NCc1csc(-c2cccs2)n1)C1=Cc2ccccc2OC1
2. N#CC(C(=O)Nc1cccc(C(F)(F)F)c1)C(=S)Nc1ccccc1Cl (stereo unspecified)
3. O=C(COc1ccc(/C=N/NC(=O)CO)cc1)NCC1CCCO1 (stereo unspecified)

1. 0.593
2. 0.644
3. 0.668

Go through the items and report each one's plate-normalized OD600 growth.
1. Nc1nc(=Nc2ccccc2)n2c(n1)sc1ccccc12
2. O=C(Nc1ccccc1C(=O)NC1CCCCNC1=O)c1cccs1 (stereo unspecified)

0.61
0.638

Go through the items and report each one's plate-normalized OD600 growth.
1. Cc1oc(-c2ccccc2)cc1C(=O)N1CCN(c2ccc([N+](=O)[O-])cc2)CC1
2. O=C(NNC(=O)c1ccccc1OCc1ccccc1)c1ccc(Cl)c(Cl)c1

1. 0.667
2. 0.606

Go through the items and report each one's plate-normalized OD600 growth.
1. Clc1cccc(Cl)c1/C=N/Nc1nncc(-c2ccccc2)n1
2. Cc1ccc2nc(Cl)c(C=Nc3ccccn3)cc2c1

1: 0.641; 2: 0.611
